Recorded pKd, one value per entry.
biological target: human RORγt ligand binding domain (RORγt LBD) (Homo sapiens (Human), UniProt P51449); assay: RORγt ThermoFluor® assay (thermal shift binding); conditions: read-out: ThermoFluor® Assay, Kd
Sequence (P51449 other isoform, or with tags, fused parts or gaps): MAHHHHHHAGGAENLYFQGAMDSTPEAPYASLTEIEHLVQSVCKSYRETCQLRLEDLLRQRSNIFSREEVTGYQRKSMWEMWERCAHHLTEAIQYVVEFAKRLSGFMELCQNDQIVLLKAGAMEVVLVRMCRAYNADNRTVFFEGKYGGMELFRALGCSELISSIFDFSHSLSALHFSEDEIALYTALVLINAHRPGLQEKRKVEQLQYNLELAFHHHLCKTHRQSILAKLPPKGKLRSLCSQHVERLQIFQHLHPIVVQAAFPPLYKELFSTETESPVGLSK
Lab note: report pKd as minus log10 of the concentration in molar units, number only.

molecule	measuredTarget	pKd
CCn1nc(C(=O)NC[C@]2(O)CC[C@@H](S(C)(=O)=O)CC2)c(C#N)c1-c1ccc(CC(C)C(F)(F)F)cc1OC (stereo partly drawn)	human RORγt ligand binding domain (RORγt LBD) (Homo sapiens (Human), UniProt P51449)	7.57
CCn1nc(C(=O)NC[C@]2(O)CC[C@@H](S(C)(=O)=O)CC2)c(C)c1-c1ccc(CCCC(F)(F)F)cc1OC(F)F	human RORγt ligand binding domain (RORγt LBD) (Homo sapiens (Human), UniProt P51449)	8.70

Moving on to another molecule below.
Ask: Look up pKd: CCn1nc(C(=O)NC[C@H]2CC[C@H](S(C)(=O)=O)CC2)c(Cl)c1-c1ccc(CC(C)(C)CC(F)(F)F)cc1OC(F)F
Result: 9.62

---

Recorded inhibition at […], one value per entry.
target: full-length human RORγt (Homo sapiens (Human)); experiment: RORγt (full-length human) reporter assay, conditions A or B, HEK293T cells; type: cell-based; details: HEK-293T; 0.22 μM compound concentration (footnote *******); read-out: RORγt (FL) Reporter Assay A or B, % inhibition
Numeric only. Scale: %

testSmiles	unitOfMeasurement	inhibition at […]
CCn1nc(C(=O)NC[C@H]2CC[C@H](S(=O)(=O)CC)CC2)c(Cl)c1-c1ccc(CC(C)(C)C(F)(F)F)cc1OC(F)F	%	107
CCn1nc(C(=O)NC[C@H]2CC[C@H](S(C)(=O)=O)CC2)c(Cl)c1-c1ccc(CC(C)(C)C(F)(F)F)cc1C	%	81

Moving on to another molecule below.
Ask: Look up inhibition at […]: CCOC(=O)[C@]1(CNC(=O)c2nn(CC)c(-c3ccc(CC(C)(C)C(F)(F)F)cc3OC(F)F)c2Cl)CC[C@@H](S(C)(=O)=O)CC1
Result: 92

---

Target: human RORγt ligand binding domain (RORγt LBD) (Homo sapiens (Human))
Test: RORγt ThermoFluor® assay (thermal shift binding)
Conditions: read-out: ThermoFluor® Assay, Kd
From the text: This approach is applicable to a wide variety of systems, and rigorous in theoretical interpretation through quantitation of equilibrium binding constants (KD). The shift in the melting point described as a ΔTm is proportional to the concentration and affinity of the ligand. RORγt ThermoFluor® Assay Construct […]
Recorded Kd, one value per entry.
Numeric only. Scale: nM

compound	reportedMeasurement
CCn1nc(C(=O)NC[C@H]2CC[C@H](S(C)(=O)=O)CC2)c(Cl)c1-c1ccc(CC(C)(C)C(F)(F)F)cc1F [Example 177]	2.2
CCn1nc(C(=O)NC[C@]2(O)CC[C@@H](S(C)(=O)=O)CC2)c(Cl)c1-c1ccc(CCC(F)(F)F)cc1F [Example 180]	46

Ask: Look up Kd: CCn1nc(C(=O)NC[C@]2(O)CC[C@@H](S(C)(=O)=O)CC2)c(C)c1-c1ccc(CCC(F)(F)F)cc1OC(F)F [Example 223]
Result: 10

Ask: Look up Kd: CCn1nc(C(=O)NC[C@H]2CC[C@H](S(C)(=O)=O)CC2)c(C)c1-c1ccc(CCC(F)(F)F)cc1OC(F)F [Example 224]
Result: 2.4

Ask: Look up Kd: CCn1nc(C(=O)NC[C@H]2CC[C@H](S(C)(=O)=O)CC2)c(Cl)c1-c1ccc(CC(C(F)(F)F)C(F)(F)F)cc1OC [Example 84]
Result: 0.7

Ask: Look up Kd: CCn1nc(C(=O)NC[C@H]2CC[C@H](S(C)(=O)=O)CC2)c(Cl)c1-c1ccc(CC(C)(C)C(F)(F)F)cc1 [Example 168]
Result: 4

---

target: full-length human RORγt (Homo sapiens (Human)); experiment: RORγt (full-length human) reporter assay, conditions A or B, HEK293T cells; format: cell-based; settings: RORγt (FL) Reporter Assay A or B, IC50, HEK293T cells
Recorded pIC50, one value per entry.
Lab note: report pIC50 as minus log10 of the concentration in molar units, number only.

molecule	reportedMeasurement
CCn1nc(C(=O)NC[C@]2(O)CC[C@@H](S(C)(=O)=O)CC2)c(Cl)c1-c1ccc(N[C@H](C)C(F)(F)F)cc1 [Example 195]	6.52
CCn1nc(C(=O)NC[C@]2(O)CC[C@H](S(C)(=O)=O)C[C@H]2O)c(Cl)c1-c1ccc(CC(C)(C)C(F)(F)F)cc1OC(F)F (single isomer, unassigned) [Example 48]	7.21
CCn1nc(C(=O)NC[C@H]2CC[C@H](S(C)(=O)=O)CC2)c(Cl)c1-c1ccc(CC(C(F)(F)F)C(F)(F)F)cc1OC(F)F [Example 86]	8.25

Ask: Look up pIC50: Cn1nc(C(=O)NC[C@H]2CC[C@H](S(C)(=O)=O)CC2)c(Cl)c1-c1ccc(CC(C)(C)C(F)(F)F)cc1OC(F)F [Example 155]
Result: 8.38

Ask: Look up pIC50: CCn1nc(C(=O)NC[C@]2(O)CC[C@@H](S(C)(=O)=O)CC2)c(Cl)c1-c1ccc(N[C@H](C)C(F)(F)F)cc1OC [Example 24]
Result: 7.28

Ask: Look up pIC50: COc1cc(N[C@H](C)C(F)(F)F)ccc1-c1c(Cl)c(C(=O)NC[C@H]2CC[C@H](S(C)(=O)=O)CC2)nn1CCO [Example 201]
Result: 5.80

---

Recorded IC50, one value per entry.
target: full-length human RORγt (Homo sapiens (Human), UniProt P51449); test: RORγt (full-length human) reporter assay, conditions A or B, HEK293T cells; type: cell-based; settings: RORγt (FL) Reporter Assay A or B, IC50, HEK293T cells
Sequence (P51449 other isoform, or with tags, fused parts or gaps): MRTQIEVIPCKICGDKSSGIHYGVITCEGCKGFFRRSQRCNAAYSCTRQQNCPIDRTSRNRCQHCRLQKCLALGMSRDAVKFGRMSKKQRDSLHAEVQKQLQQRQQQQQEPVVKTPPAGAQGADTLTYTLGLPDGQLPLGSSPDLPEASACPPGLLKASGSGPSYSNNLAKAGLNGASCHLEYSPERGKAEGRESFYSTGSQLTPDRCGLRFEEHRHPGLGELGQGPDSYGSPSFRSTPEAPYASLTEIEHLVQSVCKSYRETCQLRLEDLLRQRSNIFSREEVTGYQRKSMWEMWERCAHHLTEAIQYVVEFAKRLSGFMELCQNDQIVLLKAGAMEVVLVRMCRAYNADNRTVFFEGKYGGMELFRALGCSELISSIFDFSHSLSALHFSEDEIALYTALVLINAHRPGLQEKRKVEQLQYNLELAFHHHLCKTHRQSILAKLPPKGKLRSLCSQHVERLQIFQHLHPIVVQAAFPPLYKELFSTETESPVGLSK
In your response, put the unit directly after the numeric value.

Solved entries (count: 2):
compound	IC50
CCn1nc(C(=O)NC[C@H]2CC[C@H](S(C)(=O)=O)CC2)c(Cl)c1-c1ccc(C2(O)CCC(C(F)(F)F)CC2)cc1OC(F)F (single isomer, unassigned) [Example 115]	16 nM
CCn1nc(C(=O)NC[C@H]2CC[C@H](S(C)(=O)=O)CO2)c(Cl)c1-c1ccc(CC(C)(C)C(F)(F)F)cc1OC(F)F (single isomer, unassigned)	5.4 nM

Ask: Look up IC50: CCn1nc(C(=O)NC[C@]2(O)CC[C@@H](S(C)(=O)=O)CC2)c(Cl)c1-c1ccc(CC(C)(C)C(F)(F)F)cc1C
Result: 3.9 nM

Ask: Look up IC50: CCn1nc(C(=O)NC[C@H]2CC[C@H](S(C)(=O)=O)CC2)c(Cl)c1-c1ccc(N[C@H](C)C(F)(F)F)cc1F
Result: 45 nM

Ask: Look up IC50: CCn1nc(C(=O)NC[C@]2(O)CC[C@@H](S(C)(=O)=O)C[C@H]2O)c(Cl)c1-c1ccc(C[C@H](C)C(F)(F)F)cc1OC(F)F (stereo in doubt)
Result: 6.3 nM

---

Recorded inhibition at 6 µM, one value per entry.
Target: full-length human RORγt (Homo sapiens (Human), UniProt P51449)
Experiment: RORγt (full-length human) reporter assay, conditions A or B, HEK293T cells
Format: cell-based
Settings: HEK-293T, read-out: RORγt (FL) Reporter Assay A or B, % inhibition @ 6 μM; 6 μM compound concentration
Description: RORγt (Full-Length Human) Reporter Assay: HEK293T cells were plated at 35,000 per well in 96-well plate in medium of DMEM with 10% FBS. […] Firefly luciferase luminescence was measured using a BMG Pherastar plate reader. […] Renilla luminescence was measured using a BMG Pherastar plate reader. […] IC50s were generated by plotting final Renilla normalized data against compound concentration and percent inhibition was calculated against DMSO control. […]
Numeric only. Scale: %

Solved entries (count: 3):
compound	inhibition at 6 µM / %
CCn1nc(C(=O)NC[C@]2(O)CC[C@@H](S(C)(=O)=O)CC2)c(C#N)c1-c1ccc(CCC(F)(F)F)cc1OC	83
CC(C)(O)Cn1nc(C(=O)NC[C@]2(O)CC[C@@H](S(C)(=O)=O)CC2)c(Cl)c1-c1ccc(CC(C)(C)C(F)(F)F)cc1OC(F)F	112
COc1cc(N[C@H](C)C(F)(F)F)ccc1-c1c(Cl)c(C(=O)NC[C@H]2CC[C@H](S(C)(=O)=O)CC2)nn1CC(C)(C)O	93

Ask: Look up inhibition at 6 µM: COc1cc(N[C@H](C)C(F)(F)F)ccc1-c1c(Cl)c(C(=O)NC[C@H]2CC[C@H](S(C)(=O)=O)CC2)nn1CCO
Result: 82

Ask: Look up inhibition at 6 µM: COc1cc(N[C@H](C)C(F)(F)F)ccc1-c1c(Cl)c(C(=O)NC[C@H]2CC[C@H](S(C)(=O)=O)CC2)nn1C(C)(C)C
Result: 108

Ask: Look up inhibition at 6 µM: CCn1nc(C(=O)NC[C@]2(O)CC[C@@H](S(C)(=O)=O)CC2)c(C#N)c1-c1ccc(CC(C)C(F)(F)F)cc1OC (stereo partly drawn)
Result: 104
